biological target: LAP2, Q96RT1; assay: holdup assay; design: key: below the threshold = too weak to quantify, mostly under pKd 3.1 to 4; details: plain residues with an end cap or a label only (N-terminal biotin on a linker: ado-ado)
Sequence (Q96RT1 other isoform, or with tags, fused parts or gaps): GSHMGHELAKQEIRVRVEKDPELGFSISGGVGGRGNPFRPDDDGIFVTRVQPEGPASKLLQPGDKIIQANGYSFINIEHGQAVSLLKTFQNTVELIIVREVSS
Result type: pKd

THHRKIHTRV [ZNF599, Q96NL3]
below the threshold
IQISELETNV [SLC1A7, O00341]
4.5
GNDPDRGTSI [GRID2, O43424]
below the threshold
DLLGGGSDSI [TNRC6B, Q9UPQ9]
below the threshold
SRPHTNETSL [MCC, P23508]
below the threshold
TNSKQGETTV [FZD1, Q9UP38]
3.61

[in] Identify measured pKd associated with PSDSVGKDVF [EGLN1, Q9GZT9]
[out] below the threshold

[in] Complete the entry with pKd for NKSEPFLTWL [WWTR1, Q9GZV5]
[out] 4.6

[in] State its pKd: STYCDYTIEI [FAM71C, Q8NEG0]
[out] below the threshold
